# Test system: Baf3-L858R-T790M - C797S (Baf3-LTC)
# method-notes: Cell anti-proliferation experiment (CTG)
# Assay type: cell-based
# measurement-conditions: 72 h, class symbol
pIC50: −log10 of the molar value.
assay-metric: pIC50

compound	assay-metric	test-result
CCc1cc(Nc2ncc(Cl)c(Nc3ccccc3P(C)(C)=O)n2)c(OC)nc1N1CCN(C(=O)CN2CCC(c3cc4c(cc3F)c(N3CCC(=O)NC3=O)nn4C)C(F)(F)C2)CC1 (stereo not shown)	pIC50	7.00 to 8.00
CCc1cc(Nc2ncc(Cl)c(Nc3ccccc3P(C)(C)=O)n2)c(OC)cc1N1CCC(N(C)C(=O)CN2CCC(c3cc4c(cc3F)c(N3CCC(=O)NC3=O)nn4C)C(F)(F)C2)CC1 (stereo not shown)	pIC50	7.00 to 8.00
CCc1cc(Nc2ncc(Cl)c(Nc3ccccc3P(C)(C)=O)n2)c(OC)cc1N1CCN(C(=O)CN2CCC(c3ccc4c(N5CCC(=O)NC5=O)nn(C)c4c3)C(F)(F)C2)CC1 (stereo not shown)	pIC50	> 8.00
CCc1cc(Nc2ncc(Br)c(Nc3ccccc3P3(=O)CCCC3)n2)c(OC)cc1N1CC2(CCN(C(=O)CN3CCC(c4cc5c(cc4F)c(N4CCC(=O)NC4=O)nn5C)C(F)(F)C3)CC2(F)F)C1 (stereo not shown)	pIC50	7.00 to 8.00
COc1cc(N2CCC(CN3CCN(c4ccc5c(c4)C(=O)N(C4CCC(=O)NC4=O)C5=O)CC3)CC2)c(-c2cnn(C)c2)cc1Nc1ncc(Br)c(Nc2ccc(C3CC3)cc2P(C)(C)=O)n1 (stereo not shown) [DZL-1, reference compound]	pIC50	7.00 to 8.00
CCc1cc(Nc2ncc(Br)c(Nc3ccc(OC4CC4)cc3P(C)(C)=O)n2)c(OC)cc1N1CC2(CCN(C(=O)CN3CCC(c4cc5c(cc4F)c(N4CCC(=O)NC4=O)nn5C)C(F)(F)C3)CC2)C1 (stereo not shown)	pIC50	> 8.00

Dear colleague, I am looking for the recorded pIC50 of the following compound: CCc1cc(Nc2ncc(Cl)c(Nc3ccccc3P(C)(C)=O)n2)c(OC)cc1N1CC2(CCN(C(=O)CN3CCC(c4cc5c(cc4F)c(N4CCC(=O)NC4=O)nn5C)C(F)(F)C3)C2)C1 (stereo not shown)
7.00 to 8.00
